The reported numbers originate from the supplement of paper PMC10567573.

B1: MGC16075 (parent)
chain: AGSRQALSFEVPPCNYDPEKWIQ

variants of: B1; assay: protein stability index of a GFP-peptide fusion (GPS, HEK-293T) (PSI 1-6); higher = more stable; details: c terminus: native;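 also: lentivirally expressed fusions sorted by FACS into six bins by GFP to DsRed ratio, PSI derived from sequencing read proportions per bin multiplied by bin number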
This section presents variants with their documented protein stability index values.
property label: protein stability index

[[record]]
seq = "AKSRQALSFEVPPCNYDPEKWIQ [G2K]"
value_observed = 2

[[record]]
seq = "AGSRQSLSFEVPPCNYDPEKWIQ [A6S]"
value_observed = 1.6

[[record]]
seq = "AGSRQALFFEVPPCNYDPEKWIQ [S8F]"
value_observed = 2.92

[[record]]
seq = "AGSRQALSFEVPPCNYSPEKWIQ [D17S]"
value_observed = 1.49

[[record]]
seq = "AGSRQAFSFEVPPCNYDPEKWIQ [L7F]"
value_observed = 3.58

[[record]]
seq = "AGSRQALSEEVPPCNYDPEKWIQ [F9E]"
value_observed = 3.49

[[record]]
seq = "AGSRQALSFEYPPCNYDPEKWIQ [V11Y]"
value_observed = 3.25

[[record]]
seq = "KGSRQALSFEVPPCNYDPEKWIQ [A1K]"
value_observed = 2.18

[[record]]
seq = "AGSRQALSFEVPPLNYDPEKWIQ [C14L]"
value_observed = 1.39

[[record]]
seq = "AGSRQALSFEVPPANYDPEKWIQ [C14A]"
value_observed = 2.28

[[record]]
seq = "AFSRQALSFEVPPCNYDPEKWIQ [G2F]"
value_observed = 2.77

